settings: in n-octanol, 369.15 K
quantity: solubility (mole fraction)
Quick one: just the number, no unit, thanks!

Request: // fetch solubility (mole fraction) given entry O=C[C@H](O)[C@@H](O)[C@H](O)[C@H](O)CO
Result: 0.00228

---

conditions: in n-decanol, 367.15 K
quantity: solubility (mole fraction)
Quick one: just the number, no unit, thanks!

Request: // fetch solubility (mole fraction) given entry O=C[C@H](O)[C@@H](O)[C@H](O)[C@H](O)CO
Result: 0.00154

---

conditions: in n-decanol, 357.15 K
quantity: solubility (mole fraction)
Quick one: just the number, no unit, thanks!

Request: // fetch solubility (mole fraction) given entry O=C[C@H](O)[C@@H](O)[C@H](O)[C@H](O)CO
Result: 0.00119

---

details: in n-octanol, 355.15 K
quantity: solubility (mole fraction)
Quick one: just the number, no unit, thanks!

Request: // fetch solubility (mole fraction) given entry O=C[C@H](O)[C@@H](O)[C@H](O)[C@H](O)CO
Result: 0.00153

---

conditions: in n-dodecanol, 375.15 K
quantity: solubility (mole fraction)
Quick one: just the number, no unit, thanks!

Request: // fetch solubility (mole fraction) given entry O=C[C@H](O)[C@@H](O)[C@H](O)[C@H](O)CO
Result: 0.0014

---

settings: in n-decanol, 382.15 K
quantity: solubility (mole fraction)
Quick one: just the number, no unit, thanks!

Request: // fetch solubility (mole fraction) given entry O=C[C@H](O)[C@@H](O)[C@H](O)[C@H](O)CO
Result: 0.00239

---

conditions: in n-dodecanol, 365.15 K
quantity: solubility (mole fraction)
Quick one: just the number, no unit, thanks!

Request: // fetch solubility (mole fraction) given entry O=C[C@H](O)[C@@H](O)[C@H](O)[C@H](O)CO
Result: 0.0011

---

settings: in n-octanol, 383.15 K
quantity: solubility (mole fraction)
Quick one: just the number, no unit, thanks!

Request: // fetch solubility (mole fraction) given entry O=C[C@H](O)[C@@H](O)[C@H](O)[C@H](O)CO
Result: 0.00341

---

conditions: in n-dodecanol, 393.15 K
quantity: solubility (mole fraction)

Request: // fetch solubility (mole fraction) given entry O=C[C@H](O)[C@@H](O)[C@H](O)[C@H](O)CO
Result: 0.00203

---

conditions: in n-octanol, 379.15 K
quantity: solubility (mole fraction)
Quick one: just the number, no unit, thanks!

Request: // fetch solubility (mole fraction) given entry O=C[C@H](O)[C@@H](O)[C@H](O)[C@H](O)CO
Result: 0.0029

---

settings: in n-dodecanol, 387.15 K
quantity: solubility (mole fraction)
Quick one: just the number, no unit, thanks!

Request: // fetch solubility (mole fraction) given entry O=C[C@H](O)[C@@H](O)[C@H](O)[C@H](O)CO
Result: 0.00186

---

conditions: in n-dodecanol, 370.15 K
quantity: solubility (mole fraction)
Quick one: just the number, no unit, thanks!

Request: // fetch solubility (mole fraction) given entry O=C[C@H](O)[C@@H](O)[C@H](O)[C@H](O)CO
Result: 0.0013

---

conditions: in n-octanol, 345.15 K
quantity: solubility (mole fraction)

Request: // fetch solubility (mole fraction) given entry O=C[C@H](O)[C@@H](O)[C@H](O)[C@H](O)CO
Result: 0.00098

---

details: in n-decanol, 348.15 K
quantity: solubility (mole fraction)
Quick one: just the number, no unit, thanks!

Request: // fetch solubility (mole fraction) given entry O=C[C@H](O)[C@@H](O)[C@H](O)[C@H](O)CO
Result: 0.000902
